Each entry below carries its recorded inhibition.
- system-tested: Ribosomal protein S6 kinase alpha-2 (Homo sapiens) (UniProt Q15349)
- Sequence (Q15349 whole entry): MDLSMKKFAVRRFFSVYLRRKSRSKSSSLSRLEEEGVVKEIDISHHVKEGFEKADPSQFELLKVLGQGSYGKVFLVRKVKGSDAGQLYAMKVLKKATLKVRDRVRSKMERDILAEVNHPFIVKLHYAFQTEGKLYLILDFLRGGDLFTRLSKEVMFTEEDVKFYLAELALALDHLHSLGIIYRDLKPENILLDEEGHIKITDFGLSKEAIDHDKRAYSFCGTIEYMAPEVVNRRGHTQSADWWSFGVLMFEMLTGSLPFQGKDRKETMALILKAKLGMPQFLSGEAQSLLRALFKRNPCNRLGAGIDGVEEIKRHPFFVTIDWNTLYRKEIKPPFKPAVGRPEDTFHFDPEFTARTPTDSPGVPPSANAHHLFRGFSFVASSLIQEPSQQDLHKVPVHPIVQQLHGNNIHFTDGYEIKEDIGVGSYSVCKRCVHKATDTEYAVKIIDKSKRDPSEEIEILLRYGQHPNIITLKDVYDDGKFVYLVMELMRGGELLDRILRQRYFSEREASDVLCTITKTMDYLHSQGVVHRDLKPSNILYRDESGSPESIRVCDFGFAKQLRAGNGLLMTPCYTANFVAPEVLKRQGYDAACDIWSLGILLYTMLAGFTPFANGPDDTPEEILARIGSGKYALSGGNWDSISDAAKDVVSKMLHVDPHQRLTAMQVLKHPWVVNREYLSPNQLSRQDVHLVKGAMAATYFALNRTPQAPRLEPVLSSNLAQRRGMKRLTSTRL
- measurement-setup: at 0.1 µM
Return type: number; implicit unit %.

compound-structure: Cc1cc(O)cc(C)c1/C=C/c1cncc(C(=O)N(C)C)c1
system-tested: Ribosomal protein S6 kinase alpha-2 (Homo sapiens) (UniProt Q15349)
measurement-name: inhibition
measured-value: 0.28

compound-structure: N#Cc1c(NC(=O)c2ccccc2F)sc2c1CCCC2
system-tested: Ribosomal protein S6 kinase alpha-2 (Homo sapiens) (UniProt Q15349)
measurement-name: inhibition
measured-value: -0.49

compound-structure: CN(C)c1cc2c(Nc3ccc4c(cnn4Cc4ccccc4)c3)ncnc2cn1
system-tested: Ribosomal protein S6 kinase alpha-2 (Homo sapiens) (UniProt Q15349)
measurement-name: inhibition
measured-value: 1.63

compound-structure: CCOc1nccc2c1nc(-c1nonc1N)n2CC
system-tested: Ribosomal protein S6 kinase alpha-2 (Homo sapiens) (UniProt Q15349)
measurement-name: inhibition
measured-value: 5.7

compound-structure: c1ccc(Nc2ncc(-c3ccccc3)o2)cc1
system-tested: Ribosomal protein S6 kinase alpha-2 (Homo sapiens) (UniProt Q15349);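 further: reported value is the mean percent inhibition of RSK3, from the GSK PKIS screening panel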
measurement-name: inhibition
measured-value: 3.77

Note: attention shifts to another entry.
# input Quickly give me recorded inhibition for `COc1ccc(-c2nn3ncccc3c2-c2ccnc(Nc3cccc(C(F)(F)F)c3)n2)cc1`
# output 1.64

----------
- system-tested: Tyrosine-protein kinase Lyn (Homo sapiens);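 further: mean percent inhibition of the LYN A splice variant of the kinase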
- measurement-setup: at 1 µM
- Description: GSK_PKIS: LYN A (splice variant) mean inhibition at 1 uM [Nanosyn]
Binning rule for recorded inhibition: bin 1 (below 3%), bin 2 (3% to below 10%), bin 3 (10% or more)

Some solved cases for reference:
compound-structure: Nc1nccc(C#Cc2cncnc2Nc2ccc(OCc3cccc(F)c3)c(Cl)c2)n1
qualitative-label: bin 2
--
compound-structure: N#Cc1c(NC(=O)c2ccccc2F)sc2c1CCCC2
qualitative-label: bin 1
--
compound-structure: NC(=O)c1sc(-n2cnc3ccccc32)cc1OCc1ccccc1Br
qualitative-label: bin 2
--
compound-structure: COC(=O)c1ccc2c(c1)C(=Cc1cc(Br)c(O)c(Br)c1)C(=O)N2
qualitative-label: bin 3
--
compound-structure: COc1cc(/C=N/Nc2ncnc3c2cnn3C(C)C)ccc1O
qualitative-label: bin 3
--
compound-structure: CS(=O)(=O)Nc1cccc(-c2ccc3c(NC(=O)C4CC4)n[nH]c3c2)c1
qualitative-label: bin 1
--
compound-structure: C[C@@H](Oc1cc(-n2cnc3ccc(OC[C@@H](O)CO)cc32)sc1C(N)=O)c1ccccc1Cl
qualitative-label: bin 2
--
compound-structure: Cc1ccc(Nc2ccnc(Nc3cccc(C(N)=O)c3)n2)cc1O
qualitative-label: bin 3
--
compound-structure: c1ccc(Cc2nc3ccc(Nc4ncnc5ccccc45)cc3[nH]2)cc1
qualitative-label: bin 3

Next up:
# input Field: class (inhibition) — entry: `COc1cccc(-n2nc(C)c3c(N/N=C(\C)c4ccncc4)ncnc32)c1`
# output bin 1

----------
- system-tested: Protein-tyrosine kinase 6 (Homo sapiens) (UniProt Q13882)
- Sequence (Q13882 whole entry, looked up): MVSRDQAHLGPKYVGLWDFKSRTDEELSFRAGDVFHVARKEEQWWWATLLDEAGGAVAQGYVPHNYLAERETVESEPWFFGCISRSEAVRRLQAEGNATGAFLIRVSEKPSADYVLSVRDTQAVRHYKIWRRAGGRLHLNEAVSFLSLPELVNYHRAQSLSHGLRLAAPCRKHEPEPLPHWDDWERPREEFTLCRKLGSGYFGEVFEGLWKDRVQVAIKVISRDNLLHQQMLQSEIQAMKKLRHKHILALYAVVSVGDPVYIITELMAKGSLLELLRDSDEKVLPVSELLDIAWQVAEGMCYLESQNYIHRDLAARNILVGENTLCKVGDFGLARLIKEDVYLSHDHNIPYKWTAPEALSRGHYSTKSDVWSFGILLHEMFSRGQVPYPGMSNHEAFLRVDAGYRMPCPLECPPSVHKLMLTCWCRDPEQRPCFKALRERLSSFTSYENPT
- measurement-setup: at 0.1 µM
- Description: GSK_PKIS: BRK mean inhibition at 0.1 uM [Nanosyn]
measurement-name: inhibition (%)
Return type: number; implicit unit %.

molecule: Nc1nccc(-c2c(-c3ccc(F)cc3)ncn2CCCN2CCOCC2)n1
measured-value: 4.81
//
molecule: NS(=O)(=O)c1cccc(-c2cc3ccncc3cc2OCc2ccccc2)c1
measured-value: 4.43
//
molecule: Cc1ccc(C(=O)NC2CC2)cc1-c1ccc2[nH]ncc2c1
measured-value: -2.14
//
molecule: CN(c1ccc(NC(=O)Nc2ccc(OC(F)(F)F)cc2)cc1)c1ccnc(Nc2cccc(S(N)(=O)=O)c2)n1
measured-value: 16.1
//
molecule: NS(=O)(=O)c1ccc(NC=C2C(=O)Nc3ccc4ncsc4c32)cc1
measured-value: 3.25
//
molecule: N#Cc1c(NC(=O)c2ccccc2F)sc2c1CCCC2
measured-value: 0.56
//
molecule: CCCN1CCCC(c2ccc(Nc3nc(Nc4cc(F)ccc4C(N)=O)c4cc[nH]c4n3)c(OC)c2)C1 (centres undefined)
measured-value: 18.1
//
molecule: C[C@@H](Oc1cc(-n2cnc3ccc(OCC4CCN(C)CC4)cc32)sc1C(N)=O)c1ccccc1C(F)(F)F
measured-value: -0.71

Note: attention shifts to another entry.
# input Quickly give me recorded inhibition for `OCc1ccc(-c2nc(-c3ccccn3)c(-c3ccc4c(c3)OCO4)[nH]2)cc1`
# output 4.49

----------
Each entry below carries its recorded inhibition.
- system-tested: Testis-specific serine/threonine-protein kinase 1 (Homo sapiens)
- measurement-setup: at 0.1 µM
Return type: number; implicit unit %.

These solved cases illustrate the format of a correct answer.
compound: N#Cc1c(NC(=O)c2ccccc2F)sc2c1CCCC2
system-tested: Testis-specific serine/threonine-protein kinase 1 (Homo sapiens)
measurement-name: inhibition
measured-value: 0.47

compound: FC(F)(F)c1ccc(-c2nn3ncccc3c2-c2ccnc(Nc3ccc4c(c3)OCCO4)n2)cc1
system-tested: Testis-specific serine/threonine-protein kinase 1 (Homo sapiens)
measurement-name: inhibition
measured-value: 1.27

compound: [O-][S+]1CCN(Cc2ccc(-c3ccc4ncnc(Nc5ccc(OCc6ccccc6)c(Cl)c5)c4c3)o2)CC1
system-tested: Testis-specific serine/threonine-protein kinase 1 (Homo sapiens)
measurement-name: inhibition
measured-value: 2.58

compound: ON=C1CCc2cc(-c3nc(C4CCNCC4)[nH]c3-c3ccncc3)ccc21
system-tested: Testis-specific serine/threonine-protein kinase 1 (Homo sapiens)
measurement-name: inhibition
measured-value: 0.96

compound: COc1ccc(-c2nn3ncccc3c2-c2ccnc(Nc3cccc(C(F)(F)F)c3)n2)cc1
system-tested: Testis-specific serine/threonine-protein kinase 1 (Homo sapiens)
measurement-name: inhibition
measured-value: 0.61

compound: Cc1cc(O)cc(C)c1/C=C/c1cncc(C(=O)N(C)C)c1
system-tested: Testis-specific serine/threonine-protein kinase 1 (Homo sapiens);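 further: mean percent inhibition of TSSK1, from the GSK PKIS screening dataset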
measurement-name: inhibition
measured-value: 4.05

# input Quickly give me recorded inhibition for `O=C(Nc1ccc(Oc2ccc3[nH]c(NC(=O)c4ccco4)nc3c2)cc1)Nc1cc(C(F)(F)F)ccc1F`
# output 0.73

# input Quickly give me recorded inhibition for `COC(=O)Nc1nc2cc(Oc3ccc(NC(=O)Nc4cccc(Br)c4)cc3)ccc2[nH]1`
# output 2.91

# input Quickly give me recorded inhibition for `NS(=O)(=O)c1ccc(NC=C2C(=O)Nc3ccc4ncsc4c32)cc1`
# output 8.91

# input Quickly give me recorded inhibition for `NS(=O)(=O)c1ccc(N/N=C2\C(=O)Nc3ccc(Cl)cc32)cc1`
# output 4.37

# input Quickly give me recorded inhibition for `Oc1cccc(-c2nc(-c3ccccc3)[nH]c2-c2ccncc2)c1`
# output 5.01

# input Quickly give me recorded inhibition for `Nc1nccc(-c2c(-c3ccc(F)cc3)nn3cc(C(F)(F)F)ccc23)n1`
# output 0.37

# input Quickly give me recorded inhibition for `Cc1nc(-c2ccccc2)n2nc(NCCCN3CCOCC3)ncc12`
# output 0.26

# input Quickly give me recorded inhibition for `CC(C)c1ccc(Nc2nccc(-c3cnn4ncccc34)n2)cc1`
# output 3.15

# input Quickly give me recorded inhibition for `O=C1Nc2ccc(-c3cccnc3)cc2C1=Cc1cc(Br)c(O)c(Br)c1`
# output 2.68

# input Quickly give me recorded inhibition for `Nc1nccc(C#Cc2cncnc2Nc2ccc(OCc3cccc(F)c3)c(Cl)c2)n1`
# output 2.97

# input Quickly give me recorded inhibition for `CN(C)c1cc2c(Nc3ccc4c(cnn4Cc4ccccc4)c3)ncnc2cn1`
# output 3.54

# input Quickly give me recorded inhibition for `CS(=O)(=O)Nc1cccc(-c2ccc3c(NC(=O)C4CC4)n[nH]c3c2)c1`
# output 1.06

----------
Each entry below carries its recorded inhibition.
- system-tested: Serine/threonine-protein kinase PAK 2 (Homo sapiens) (UniProt Q13177);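 further: reported values are mean inhibition of PAK2, averaged over measurements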
- Sequence (Q13177 whole entry): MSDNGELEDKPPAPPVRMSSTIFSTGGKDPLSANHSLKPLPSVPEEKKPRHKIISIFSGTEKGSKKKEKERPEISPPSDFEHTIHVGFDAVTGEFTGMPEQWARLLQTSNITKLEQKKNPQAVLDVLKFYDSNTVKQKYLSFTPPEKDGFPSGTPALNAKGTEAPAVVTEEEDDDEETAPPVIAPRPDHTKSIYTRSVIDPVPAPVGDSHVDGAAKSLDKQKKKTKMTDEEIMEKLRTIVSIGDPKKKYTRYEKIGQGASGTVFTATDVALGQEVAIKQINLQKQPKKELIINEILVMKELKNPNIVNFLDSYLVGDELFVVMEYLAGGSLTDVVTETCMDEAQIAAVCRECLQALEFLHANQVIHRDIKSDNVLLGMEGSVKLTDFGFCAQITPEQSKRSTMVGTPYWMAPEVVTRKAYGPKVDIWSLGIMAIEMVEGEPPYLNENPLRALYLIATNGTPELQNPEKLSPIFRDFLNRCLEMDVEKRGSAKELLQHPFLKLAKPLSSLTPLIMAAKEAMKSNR
- measurement-setup: at 1 µM
Return type: number; implicit unit %.

compound: OCc1ccc(-c2nc(-c3ccccn3)c(-c3ccc4c(c3)OCO4)[nH]2)cc1
result-unit: %
inhibition: 2.79
--
compound: CCS(=O)(=O)c1ccc(OC)c(Nc2ncc(-c3cccc(OC)c3)o2)c1
result-unit: %
inhibition: 1.98
--
compound: NC(=O)c1sc(-n2cnc3ccccc32)cc1OCc1ccccc1Br
result-unit: %
inhibition: 2.45
--
compound: ON=C1CCc2cc(-c3nc(C4CCNCC4)[nH]c3-c3ccncc3)ccc21
result-unit: %
inhibition: -0.29
--
compound: Cc1cc(O)cc(C)c1/C=C/c1cncc(C(=O)N(C)C)c1
result-unit: %
inhibition: 0.38
--
compound: COc1ccc2ncnc(Nc3ccc(OCc4ccccc4)cc3)c2c1
result-unit: %
inhibition: 0.47

# input Quickly give me recorded inhibition for `Cc1ccc2c(-c3ccnc(Nc4cccc(C(F)(F)F)c4)n3)c(-c3ccccc3)nn2n1`
# output 1.7

# input Quickly give me recorded inhibition for `COc1cc(/C=N/Nc2ncnc3c2cnn3C(C)C)ccc1O`
# output -0.45

# input Quickly give me recorded inhibition for `CN(C)c1cc2c(Nc3ccc4c(cnn4Cc4ccccc4)c3)ncnc2cn1`
# output 0.51

# input Quickly give me recorded inhibition for `O=S(=O)(CCOCc1ccc(-c2ccc3ncnc(Nc4ccc(OCc5cccc(F)c5)c(Cl)c4)c3c2)o1)c1ccccc1`
# output 0.7

# input Quickly give me recorded inhibition for `COC(=O)Nc1nc2cc(Oc3ccc(NC(=O)Nc4cccc(Br)c4)cc3)ccc2[nH]1`
# output 0.39

# input Quickly give me recorded inhibition for `COc1cccc(-n2ncc3c(N/N=C/c4ccc(C)cc4)ncnc32)c1`
# output 1.47

# input Quickly give me recorded inhibition for `NS(=O)(=O)c1cccc(-c2cc3ccncc3cc2OCc2ccccc2)c1`
# output 2.6

# input Quickly give me recorded inhibition for `Cc1ccc(O)cc1Nc1ccnc2ccc(S(C)(=O)=O)cc12`
# output 2.56

# input Quickly give me recorded inhibition for `CN1CCN(C(=O)c2ccc(NC(=O)Nc3ccc(N(C)c4ccnc(Nc5ccc(CS(C)(=O)=O)cc5)n4)cc3)cc2)CC1`
# output 1.51
